Here, each record is paired with measured z-score data.
assay-summary: CREB reporter modulators without forskolin, primary screen, cell-based, PC12, CRE-LacZ reporter, unstimulated (AID 1145)
conditions: no forskolin, luminescence, 4.5 h, higher = more signal, called active from +8 up or from −8 down
parameter: z-score

- compound: "C=CCOC(=O)[C@H]1[C@@H]2C(=O)O[C@@H](c3ccccc3)[C@@H](c3ccccc3)N2[C@@H](c2ccc(OCCOC(=O)[C@H]3C[C@H]4C(=O)NCC(=O)N4[C@H]3c3ccc(O)cc3)cc2)[C@]12C(=O)Nc1ccc(I)cc12"
  parameter: "z-score"
  endpoint-result: -0.13
- compound: "COc1cc2c(cc1O)C(C1CC1)N(Cc1ccc([N+](=O)[O-])o1)CC2 (configuration not stated)"
  parameter: "z-score"
  endpoint-result: 0.0924
- compound: "CC#CCO[Si](C#CCCCCCC)(C(C)C)C(C)C"
  parameter: "z-score"
  endpoint-result: -0.374
- compound: "COCCOC(=O)N1C(=O)[C@@]2(c3cc(C#CC4=CCCCC4)ccc31)[C@H](c1ccccc1OCCO)N1[C@H](c3ccccc3)[C@H](c3ccccc3)OC(=O)[C@H]1[C@@H]2C(N)=O"
  parameter: "z-score"
  endpoint-result: -2.37
- compound: "[N-]=[N+]=NCc1ccccc1C[C@]1(C(=O)O)COC(c2ccc(OCCCO)cc2)=N1"
  parameter: "z-score"
  endpoint-result: -0.426
- compound: "CN1C(=O)[C@]2(CCC(=O)OC(C)(C)C)N=C(c3ccc(OCCCO)cc3)O[C@@H]2c2ccccc21"
  parameter: "z-score"
  endpoint-result: 1.41
- compound: "C[N+](C)(C)CCCCCCNC(=O)[C@H]1C[C@H]2C(=O)NCC(=O)N2[C@H]1c1cccc(OCCO)c1"
  parameter: "z-score"
  endpoint-result: -0.675

----------
Parameter composite z-score: see the listing below.
assay-summary: small-molecule binders of probe aLefty1, primary screen, biochemical, small-molecule microarray, 635/667 nm fluorescence (AID 1153);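 note: score merges spot fluorescence with signal-to-noise ratio from the scanned slide images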
conditions: higher = more signal

- compound: "C[C@]1(C(=O)NCC(F)(F)F)c2ccccc2C(=O)N(Cc2ccc(OC(F)(F)F)cc2)[C@H]1c1ccc(CO)cc1"
  composite z-score: -0.284
- compound: "CCCC[C@H]1OB(O)C[C@H]2C1=C(COC)C[C@H]1C(=O)C=CC(=O)[C@H]12"
  composite z-score: -0.188
- compound: "C=CCC(OC(C)=O)[C@@H]1[C@@H](N(Cc2ccc(-c3ccccc3)cc2)C(=O)c2cccc3ccccc23)c2cc(OCCCO)ccc2N1C(=O)c1ccc2ccccc2c1 (some centres undefined)"
  composite z-score: -0.0447
- compound: "CCCCC(O)C1C=CC2C(=O)NC(=O)C2N1Nc1ccc(Cl)cc1Cl (centres undefined)"
  composite z-score: 0.396
- compound: "Cc1ccc(S[C@]2(C(=O)NC3CC3)CC(=O)N(Cc3cc(C(F)(F)F)cc(C(F)(F)F)c3)[C@@H]2c2ccc(CO)cc2I)cc1"
  composite z-score: -0.625
- compound: "O=C1OCCC/C=C\\[C@H]2OC34C=CCN(Cc5ccccc5)C(=O)[C@H]3N(CCCCCO)C(=O)[C@@H]4C12 (some centres undefined)"
  composite z-score: -0.094
- compound: "CC(C)=CCN(C(=O)C#Cc1ccccc1)[C@H](CO)c1ccccc1"
  composite z-score: -0.0876
- compound: "CCCCCCCCCCC(O)C1C=CC2C(=O)N(C)C(=O)C2N1N1CCCCC1 (centres undefined)"
  composite z-score: 0.532
- compound: "O=C1C2C=CC(C(O)c3cccc(O)c3)N(Nc3ccccc3F)C2C(=O)N1c1ccccc1 (centres undefined)"
  composite z-score: 0.137

----------
assay-summary: mitochondrial membrane potential change in A549 cells, profiling panel, cell-based, JC-1 fluorescence, basal, 24 h, 100 nL (AID 1138);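 note: A549 lung adenocarcinoma cells under basal conditions with no added stimulus; test concentration not given here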
conditions: higher = more signal

- compound: "CCC[C@@H]1C=C(C(=O)OCC)[C@H](c2ccccc2)N1S(=O)(=O)c1ccc(C)cc1"
  z-score: 2.03
- compound: "CCCCN1CC=CC23O[C@@H]4C=CCOC(=O)[C@@H]4[C@H]2C(=O)N(C(CO)C(C)C)[C@@H]3C1=O (stereo partly specified)"
  z-score: 0.406
- compound: "C=C(C(=O)CC[C@@H](OC(C)=O)c1cccc(OCCO)c1)C(C)C"
  z-score: -0.106
- compound: "C=CCNC(=O)[C@@H]1[C@H]2C(=O)O[C@H](c3ccccc3)[C@H](c3ccccc3)N2[C@H](c2ccc(O)cc2)[C@@]12C(=O)Nc1ccc(C#CC3(O)CCCCCC3)cc12"
  z-score: -0.9
- compound: "COc1ccc(CCNC(=O)[C@@]2(Sc3ccc(C)cc3)CC(=O)N(C(C)C)[C@@H]2c2ccc(CO)cc2)cc1"
  z-score: 0.339
- compound: "COC(=O)C1(CC(C)C)C=C2C(=C(C(C)C)C(=O)C2C)CN1 (stereo unspecified)"
  z-score: 0.44
- compound: "O=C1C2C=CC(C(O)c3ccc([N+](=O)[O-])cc3)N(Nc3ccccc3)C2C(=O)N1c1ccccc1 (stereo unspecified)"
  z-score: -0.467
- compound: "CCCCC=C[C@@H](NC(=O)c1ccc(C(F)(F)F)cc1)c1ccccc1"
  z-score: 0.798
- compound: "C=CCC(OC(C)=O)[C@@H]1[C@@H](N(Cc2ccc(-c3cccc(C(F)(F)F)c3)o2)C(=O)c2cccc3ccccc23)c2cc(OCCCO)ccc2N1C(=O)c1ccc2ccccc2n1 (stereo partly specified)"
  z-score: -0.431
- compound: "COCCCNC(=O)[C@@H]1c2ccccc2C(=O)N(C2CCCCC2)[C@H]1c1ccc(CO)cc1"
  z-score: 0.705
- compound: "C=CC(CO)NC(=O)OCC1c2ccccc2-c2ccccc21 (stereo unspecified)"
  z-score: 0.02
- compound: "C[C@H]1NC(=O)C([C@@H](C)OCc2ccccc2)NC(=O)[C@@]23C(=O)N[C@@H](Cc4ccccc4)C2[C@H](C)[C@@]2(C)O[C@H]2C3/C=C/C/C=C\\CNC1=O (stereo partly specified)"
  z-score: 0.919
- compound: "CC(C)(C)N1CC=CC23O[C@@H]4/C=C\\CCCOC(=O)C4[C@H]2C(=O)N(CCCCCCO)[C@@H]3C1=O (stereo partly specified)"
  z-score: 1.2
- compound: "C#CCN(C/C=C/c1ccccc1)[C@H](CO[Si](C)(C)C(C)(C)C)c1ccccc1"
  z-score: -2.21
- compound: "COCC(=C=CC[C@@H](O)c1cccc(OCCO)c1)C[C@@H](O)COCc1ccccc1"
  z-score: 0.806
- compound: "Cc1c(NC(=O)/C(C#N)=C/c2ccc(Cl)cc2)c(=O)n(-c2ccccc2)n1C"
  z-score: 1.28
- compound: "COc1cc(OC)c(C(O)C2C=CC3C(=O)N(c4ccccc4)C(=O)C3N2Nc2ccccc2F)cc1Br (stereo unspecified)"
  z-score: -0.78
- compound: "O=C1O[C@@H](c2ccccc2)[C@@H](c2ccccc2)N2[C@@H](c3ccc(OCCO)cc3)[C@]3(C(=O)Nc4ccc(C#CCCO)cc43)[C@@H](C(=O)Nc3nc4ccccc4s3)[C@H]12"
  z-score: -2.19
- compound: "C[N+](C)(C)CCCCCCNC(=O)[C@@H]1C[C@@H]2C(=O)N[C@@H](Cc3ccccc3)C(=O)N2[C@@H]1c1ccc(O)cc1"
  z-score: -0.247
- compound: "C=CCOC(=O)[C@H]1[C@@H]2C(=O)O[C@@H](c3ccccc3)[C@@H](c3ccccc3)N2[C@@H](c2ccc(OCCOC(=O)[C@@H]3C[C@@H]4C(=O)N[C@@H](Cc5ccccc5)C(=O)N4[C@@H]3c3ccc(O)cc3)cc2)[C@]12C(=O)Nc1ccccc12"
  z-score: -1.15
- compound: "O=C(NCCO)C1=C[C@H](Oc2ccccc2I)[C@@H](O)[C@H](NCc2ccc(F)cc2)C1"
  z-score: -0.697
- compound: "CC(C)(C)OC(=O)CC[C@]1(C(=O)N2CCOCC2)N=C(c2ccc(OCCCO)cc2)O[C@H]1c1ccccc1CN=[N+]=[N-]"
  z-score: -0.423
- compound: "CC(=O)c1ccc(C(O)C2C=CC3C(=O)NC(=O)C3N2Nc2ccc(Cl)cc2Cl)cc1 (stereo unspecified)"
  z-score: -0.76
- compound: "CCc1cccc(NC(=O)O[C@H]2[C@H](OC(=O)Nc3ccc4c(c3)OCO4)[C@H](OC(=O)Nc3ccc4c(c3)OCO4)[C@@H](OC)O[C@@H]2CO)c1"
  z-score: -0.308
- compound: "CN1C=C(C(=O)OCCS(C)(=O)=O)C(C(=O)OCCS(C)(=O)=O)=CC(CCCO)=CC1c1ccc(CN2CCCC2)cc1 (stereo unspecified)"
  z-score: 3.43
- compound: "CC(=O)c1ccc(C(O)C2C=CC3C(=O)N(C)C(=O)C3N2NC(=O)OC(C)(C)C)cc1 (stereo unspecified)"
  z-score: -0.082
- compound: "CCCC[C@H]1OB(O)C[C@H]2C1=C(COC)C[C@H]1C(=O)C=CC(=O)[C@H]12"
  z-score: 0.777
- compound: "COCCCN1C(=O)[C@@]2(Cc3ccccc31)c1ccccc1C(=O)N(Cc1ccccc1OC)[C@H]2c1ccc(CO)cc1"
  z-score: 0.0581
- compound: "CC#CCO[Si](C#CCCCCCC)(C(C)C)C(C)C"
  z-score: -0.996
- compound: "CCCCC(O)C1C=CC2C(=O)NC(=O)C2N1Nc1ccccn1 (stereo unspecified)"
  z-score: -0.0561
- compound: "C=CC[C@@]12N=C(c3ccc(OCCCO)cc3)O[C@@H]1c1ccccc1N(Cc1ccccc1)C2=O"
  z-score: -0.379
